- System: T-47D breast
- ASSAY_INFO: NCI tumour cell line growth inhibition, 48 h
Each record here notes measured TGI.

COMPOUND	MEASURED_ON	TGI / µM
CC1=CC(=Nc2ccc(N(CCCl)CCCl)cc2)C=C(C)C1=O	T-47D breast	3.22
O=C1Nc2c(C(F)(F)F)cccc2[C@]1(c1ccc(O)cc1)c1ccc(OC(F)(F)F)cc1	T-47D breast	17.9
CC[CH2][Sn]([CH2]CC)([O]C(=O)c1cccnc1SC)[O][Sn]([CH2]CC)([CH2]CC)[O]C(=O)c1cccnc1SC	T-47D breast	1.52
C=C1C(=O)O[C@@]23C1CC[C@@H](C)C2CC[C@@]1(C)OC31 (some centres undefined)	T-47D breast	19.2
CCOc1cc2c(Cl)ncnc2c(OCC)c1OCC	T-47D breast	22.8
N#Cc1ccc(NC(=O)Nc2ccc(Oc3ccc(NC(=O)Nc4ccc(C#N)cc4)cc3)cc2)cc1	T-47D breast	31.6
COc1ccc2c(c1)CC1=C(O2)c2ccc(OC)cc2OC1	T-47D breast	37.5
CC(C)(C)c1cc(/C=C(\C#N)C(=O)NCCO)cc(C(C)(C)C)c1O	T-47D breast	76.8
C=C1CC(C)(c2ccc(Nc3nc4ccccc4c4occc34)cc2)OC1=O (centres undefined)	T-47D breast	6.85
N#Cc1ccc(O)c(C2=NCC(c3cccc(Oc4ccccc4)c3)O2)c1 (centres undefined)	T-47D breast	59.6
